B1: Zinc finger MYM-type protein 2, residues 463 to 506; numbered along this chain, Q9UBW7 (parent)
chain: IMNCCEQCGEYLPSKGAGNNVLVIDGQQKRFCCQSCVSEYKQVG

Variants of: B1
Experiment: abundance fitness (aPCA) (normalised: wild type 0, dead -1); higher = more abundant; growth selection in yeast, the domain comes from the species named
Conditions: Homo sapiens
Use Satisfied when the recorded abundance fitness is no lower than -0.06; use Not satisfied when it is lower.

Example entries and their recorded answers appear below.
{"columns": ["seq string", "assigned class"],
 "data": [
  ["IMNCCEQCGEYLPSKGAGNNVLVIDGQQKRFCCQSCASEYKQVG [V37A]", "Not satisfied"],
  ["IMNCCEQCGEYLPSKGAGNNVCVIDGQQKRFCCQSCVSEYKQVG [L22C]", "Not satisfied"],
  ["IMNCCEQCGEYLPSKGAGNNVLVIDGQQKRFQCQSCVSEYKQVG [C32Q]", "Not satisfied"],
  ["IMNCCEQCGEYLPSKGAGNNVLVIDGQQKRFICQSCVSEYKQVG [C32I]", "Not satisfied"],
  ["IMNCCEQCGERLPSKGAGNNVLVIDGQQKRFCCQSCVSEYKQVG [Y11R]", "Satisfied"]
]}

Can IMNCCEQCGEYLPSKGAGNNVLVIDGQQKRFCCQSCVSEYTQVG [K41T] be said to have abundance fitness at or above -0.06?
Satisfied

Can IMNCCEQCGEYLPSKGAGNRVLVIDGQQKRFCCQSCVSEYKQVG [N20R] be said to have abundance fitness at or above -0.06?
Not satisfied

Can IMNCCEQCGEYLPSKCAGNNVLVIDGQQKRFCCQSCVSEYKQVG [G16C] be said to have abundance fitness at or above -0.06?
Not satisfied

Can IMNCCEQCGEYLPSKGAGNNVLVIDGQQKRFCCQKCVSEYKQVG [S35K] be said to have abundance fitness at or above -0.06?
Satisfied

Can IMNCCEQCGEYLPSKGAGNNVLVIDGQQKRFFCQSCVSEYKQVG [C32F] be said to have abundance fitness at or above -0.06?
Not satisfied

Can IMNCCEQCGEYLPSKGAGNNVLVIDGQQKRFCCQSCVSAYKQVG [E39A] be said to have abundance fitness at or above -0.06?
Satisfied

Can IMNCCEQCLEYLPSKGAGNNVLVIDGQQKRFCCQSCVSEYKQVG [G9L] be said to have abundance fitness at or above -0.06?
Not satisfied

Can IMNCCEQCGEYLPSKGAGNNVLVIDGQQKRFCCQSCMSEYKQVG [V37M] be said to have abundance fitness at or above -0.06?
Satisfied

Can IMNCCEQCGEYLPSKGAGKNVLVIDGQQKRFCCQSCVSEYKQVG [N19K] be said to have abundance fitness at or above -0.06?
Not satisfied

Can IMNCCEKCGEYLPSKGAGNNVLVIDGQQKRFCCQSCVSEYKQVG [Q7K] be said to have abundance fitness at or above -0.06?
Not satisfied

Can IMNCCEQCGEYLPSCGAGNNVLVIDGQQKRFCCQSCVSEYKQVG [K15C] be said to have abundance fitness at or above -0.06?
Satisfied
